- STUDY_SYSTEM: recombinant human IDO (Homo sapiens, UniProt P14902)
- Sequence (P14902 whole entry): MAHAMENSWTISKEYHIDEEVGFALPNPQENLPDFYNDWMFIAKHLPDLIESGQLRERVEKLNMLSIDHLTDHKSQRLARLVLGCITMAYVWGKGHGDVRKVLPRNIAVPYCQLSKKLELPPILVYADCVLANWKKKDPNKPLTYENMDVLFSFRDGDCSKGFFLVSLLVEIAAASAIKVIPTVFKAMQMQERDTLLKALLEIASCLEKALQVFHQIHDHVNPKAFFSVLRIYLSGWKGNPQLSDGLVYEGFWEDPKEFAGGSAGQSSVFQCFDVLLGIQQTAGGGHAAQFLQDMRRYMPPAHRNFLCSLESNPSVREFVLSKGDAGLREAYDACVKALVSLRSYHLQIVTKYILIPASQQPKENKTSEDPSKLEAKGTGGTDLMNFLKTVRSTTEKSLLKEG
- METHOD_NOTES: IDO inhibition kinetics (N-formylkynurenine formation, absorbance at 321 nm)
- Assay type: biochemical
- STATED_CONDITIONS: 50 nM recombinant human IDO, 100 μM L-Tryptophan, pH 6.5; read-out: Ki
QUANTITY_KIND: Ki (nM)

>  <COMPOUND>
O=C1C=Cc2ccccc2C1=O [1,2 naphthoquinone, reference compound]

>  <Ki [nM]>
3400

$$$$

I = CCc1c(C)cc2c(c1O)C(=O)C1=C(C2=O)C(C)(C)OC1(O)C(=O)OC (stereo not shown)
II = COc1c(C(C)=O)c(C)cc2cc3c(c(O)c12)C(=O)C(C)(C)C(=O)C3(C)C
III = CC12CCCc3coc(c31)C(=O)c1cc3c(cc12)C(=O)C=CC3=O (stereo not shown)
(Q) Please put the entries in order of rising Ki. # answer = labels listed in requested order
(A) III, I, II
